Recorded TGI by entry
# Test system: HL-60(TB) leukemia
# test-summary: NCI tumour cell line growth inhibition, 48 h
Write down the numeric answer in µM and omit the unit.

Please review the entries below; each comes with its answer.
COc1ccc2c(c1)/C(=C\c1c(Cl)nc3sc(C)cn13)C(=O)N2 = 6.11
CCCCCCN(CCCCCC)C(=O)Cc1c2n(c3ccccc13)Cc1ccccc1-2 = 46.4
C[Si](C)(C)C1(Sc2ccccc2)SCCCS1 = 33.3
Cc1cccc2c1CC1(C2)Cc2c(C)cccc2C1=O (configuration not stated) = 52.6
CCCCCCCCC/C=C1\CCC(CN2CCOCC2)C1=O (configuration not stated) = 4.38
CCCCCCOc1ccc(C(=O)NOC)cc1 = 86.8
CN(C)c1nc(=Nc2ccc(N=c3nc(N(C)C)ss3)cc2)ss1 = 45.3
Cc1cc(C(=O)CCCCOc2ccc(C3=NCCO3)cc2)c(C)n1C = 23.7
NS(=O)(=O)c1cc(Br)c(N=Nc2ccc(O)c3ncccc23)c(Br)c1 = 29.4
COc1cc(C2c3cc4c(cc3OC(C)(O)C2C)OCO4)cc(OC)c1OC (configuration not stated) = 0.53

response.value for "COc1cc(/C=C2\CN(S(=O)(=O)c3ccccc3)C/C(=C\c3cc(CN4CCCC4)c(O)c(OC)c3)C2=O)cc(CN2CCCC2)c1O" (field: TGI) = 2.73

###

# Tested on: OVCAR-3 ovarian
# test-summary: NCI tumour cell line growth inhibition, 48 h
Recorded TGI by entry
Write down the numeric answer in µM and omit the unit.

ClCc1cccc(Cn2cnc3ncnc(Cl)c32)c1 = 3.23
OC(c1cc(-c2ccc(C(F)(F)F)cc2)nc(-c2ccc(C(F)(F)F)cc2)c1)C1CCCCN1 (configuration not stated) = 3.25
CCCCCCCCC/C=C1\CCC(CN2CCOCC2)C1=O (configuration not stated) = 24.9

response.value for "N=Nc1c(OC(=O)Nc2cccc(Cl)c2)[nH]c2ccccc12" (field: TGI) = 6.6

response.value for COC(=O)C1=C(C)NC(C)=C(C(=O)OCCCN2CCC(c3ccccc3)(c3ccccc3)CC2)C1c1cccc([N+](=O)[O-])c1 (configuration not stated) (field: TGI) = 2.8

response.value for Nc1ncnc2c1nnn2C1OC(CO)C(O)C1O (configuration not stated) (field: TGI) = 9.26

response.value for "Cn1cnc([N+](=O)[O-])c1S(=O)(=O)Oc1cccc2ccccc12" (field: TGI) = 3.96

response.value for "CCOC(=O)c1nc2c(nc1C(=O)OCC)C(=O)c1ccccc1C2=O" (field: TGI) = 2.81

response.value for COC1=CC(=O)C(C2CC(=O)c3c(O)cc(O)cc3O2)=CC1=O (configuration not stated) (field: TGI) = 39.9

###

# System: MCF7 breast
# test-summary: NCI tumour cell line growth inhibition, 48 h; in the data active means GI50 below about 0.43 µM; inactive means the rest
Hi there, use one of these labels in your reply, thanks! 1 = active, -1 = inactive

Illustrative cases are given below, each with its answer.
COc1cc2c3c(n(C)c(=O)c2cc1OC)-c1cc2c(cc1/C3=C\CCN)OCO2 = 1
Cn1cnc([N+](=O)[O-])c1S(=O)(=O)Oc1cccc2ccccc12 = -1
COc1cc(/C=C/c2cc(O)c(C(C)=O)c(O)c2)cc2c1O[C@]1(C)CC[C@@H](O)C(C)(C)[C@H]1C2 = -1
O=C(Nc1ccc(Cl)cc1)c1cccc(NC2=C(Cl)C(=O)N(Cc3ccccc3)C2=O)c1 = -1
O=C(CSc1ccc(Cl)cc1)Nc1ccc(-c2nc3ccccc3s2)c(Cl)c1 = -1
CCCCCCCC(=O)SCC/C=C/[C@@H]1CC(=O)NCc2cc(ccn2)C2=N[C@@](C)(CS2)C(=O)N[C@@H](C(C)C)C(=O)O1 = 1
CN(C(=O)c1ccc(C(F)(F)F)cc1)c1ccc(Oc2ccc3c(c2)cc(C(=O)N2CCN(Cc4ccc(OC(F)F)cc4)CC2)n3C)nc1 = -1
Cc1cc2c(cc1Cl)SC(N(N(C)C)S(=O)(=O)c1ccc(Cl)cc1)=NS2(=O)=O = -1

Status in this test for "O=C(/C=C/c1ccncc1)c1cc(Cl)ccc1O" ?
-1
